measured_target: PPARδ (Homo sapiens, UniProt Q03181)
Sequence (Q03181 171-441 limits assumed): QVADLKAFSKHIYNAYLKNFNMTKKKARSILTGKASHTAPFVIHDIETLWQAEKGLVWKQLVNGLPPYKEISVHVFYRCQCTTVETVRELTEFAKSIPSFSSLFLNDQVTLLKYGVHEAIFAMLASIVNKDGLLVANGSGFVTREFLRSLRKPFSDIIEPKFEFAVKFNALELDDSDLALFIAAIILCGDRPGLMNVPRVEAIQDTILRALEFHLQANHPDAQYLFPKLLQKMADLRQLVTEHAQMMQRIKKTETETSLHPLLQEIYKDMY
procedure_summary: Cross-curve PPAR transactivation test (PPARδ)
particulars: HeLN cells, Gal-hPPARδ, luciferase reporter; cross curves against reference agonist, Schild regression; n.a means not active; read-out: PPARs delta Kd app
Each entry below carries its recorded log10(Kd).
measurement_label: log10(Kd) (log10 of the value in nM)

> print(dat)
                                    compound  data.value
 1  CCCCCCCNC(=O)N(C)c1cccc(-c2ccc(CCC(=O)O)cc2OCCCC)c1 [Example 26]        3.00
 2  CCCCCCCNC(=O)N(C)c1cccc(-c2ccc(/C=C/C(=O)O)cc2OCc2ccccc2)c1 [Example 24]        3.30
 3  CN(C(=O)Nc1ccc(OCc2ccccc2)cc1)c1cccc(-c2ccc(CCC(=O)O)cc2)c1 [Example 13]        3.30
 4  CCCCCCCNC(=O)N(C)c1cccc(-c2ccc(CCC(=O)O)cc2OC)c1 [Example 18]        2.40
 5  CCCCCCCNC(=O)N(C)c1cccc(-c2ccc(CCC(=O)O)cc2OCC2CC2)c1 [Example 35]        3.00
 6  CCCCCCCNC(=O)N(C)c1cccc(-c2ccc(CCC(=O)O)cc2OCCC)c1 [Example 25]        2.08
 7  CCCCCNC(=O)N(C)c1cccc(-c2ccc(CCC(=O)O)cc2OCCCC)c1 [Example 41]        3.30
 8  CCCCCCCNC(=O)N(C)c1cccc(-c2ccc(CCC(=O)O)c(F)c2)c1 [Example 3]        3.30
 9  CCCCCCCNC(=O)N(C)c1cccc(-c2ccc(CCC(=O)O)cc2OCCC(F)(F)F)c1 [Example 37]        3.30
10  CCCCOc1ccc(NC(=O)N(C)c2cccc(-c3ccc(CCC(=O)O)cc3)c2)cc1 [Example 33]        3.00
11  CCCCCCCNC(=O)N(C)c1cccc(-c2ccc(CCC(=O)O)cc2OCCOC)c1 [Example 15]        3.30
12  CCCCc1ccc(NC(=O)N(C)c2cccc(-c3ccc(CCC(=O)O)cc3)c2)cc1 [Example 14]        2.70
13  CCCCOc1ccc(NC(=O)N(CC)c2cccc(-c3ccc(CCC(=O)O)cc3)c2)cc1 [Example 34]        0.90
14  CCCCCCCNC(=O)N(C)c1cccc(-c2ccc(CCC(=O)O)cc2)c1 [Example 2]        2.70

Origin of measurements: patent US7863332B2
